target-or-test-system: Glucagon receptor (Homo sapiens, UniProt P47871)
Sequence (P47871 whole entry): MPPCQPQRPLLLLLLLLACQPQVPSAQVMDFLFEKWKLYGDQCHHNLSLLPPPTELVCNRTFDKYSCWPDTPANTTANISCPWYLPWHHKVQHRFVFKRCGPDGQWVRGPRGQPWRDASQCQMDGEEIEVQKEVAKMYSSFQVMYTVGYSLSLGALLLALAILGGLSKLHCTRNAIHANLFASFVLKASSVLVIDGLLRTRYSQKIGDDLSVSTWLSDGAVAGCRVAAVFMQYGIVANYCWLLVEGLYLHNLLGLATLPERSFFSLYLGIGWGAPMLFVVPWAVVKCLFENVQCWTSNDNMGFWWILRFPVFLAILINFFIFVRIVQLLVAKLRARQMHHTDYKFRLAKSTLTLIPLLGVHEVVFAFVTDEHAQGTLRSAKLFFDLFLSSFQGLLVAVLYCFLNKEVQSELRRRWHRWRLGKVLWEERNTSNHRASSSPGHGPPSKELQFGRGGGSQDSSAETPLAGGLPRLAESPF
assay-explanation: In vitro binding affinity for recombinant human glucagon receptor (hGGR) in BHK cells
Format: cell-based
IC50 strictly less than 20 nM = YES. Otherwise NO.

These recorded examples may help you get a feel for the data.
[
  {
    "chemical-structure": "N#Cc1cc(C(=O)N/N=C/c2ccc(OCC(=O)N3CC=C(c4ccc(Br)cc4)CC3)c3ccccc23)ccc1O",
    "qualitative-label": "YES"
  },
  {
    "chemical-structure": "O=C(N/N=C/c1ccc(CC(=O)N2CCN(Cc3ccc(Cl)cc3)CC2)c2ccccc12)c1ccc(O)c(Cl)c1",
    "qualitative-label": "YES"
  },
  {
    "chemical-structure": "CCN(CC)C(=O)Cc1ccc(/C=N/NC(=O)c2ccc(O)c(C#N)c2)c2ccccc12",
    "qualitative-label": "YES"
  },
  {
    "chemical-structure": "CC(C)CS(=O)(=O)c1ccc(/C=N/NC(=O)c2ccc(O)c(Cl)c2)c2ccccc12",
    "qualitative-label": "NO"
  },
  {
    "chemical-structure": "O=C(N/N=C/c1cccc2c1ccn2Cc1ccc(OC(F)(F)F)cc1)c1ccc(O)c(Cl)c1",
    "qualitative-label": "NO"
  }
]

Qu. Below 20 nM on IC50? Entry "CN(C)CCN(Cc1ccccc1)C(=O)Cc1ccc(/C=N/NC(=O)c2ccc(O)c(Cl)c2)c2ccccc12"
Ans. YES

Qu. Below 20 nM on IC50? Entry "CCN(CC)C(=O)COc1ccc(/C=N/NC(=O)c2ccc(O)c(Cl)c2)c2ccccc12"
Ans. NO

Qu. Below 20 nM on IC50? Entry "O=C(N/N=C/c1cccc2c(CO)cccc12)c1ccc(O)c(Cl)c1"
Ans. NO

Qu. Below 20 nM on IC50? Entry "O=C(N/N=C/c1cn(Cc2ccccc2)c2ccccc12)c1ccc(O)c(Cl)c1"
Ans. NO
